Overview of reported pIC50 across a group of molecules:
Target: C-Raf kinase (Homo sapiens, UniProt P04049, Y340D/Y341D)
Construct: Y340D,; GST (N); purchased Sigma
Sequence (P04049 307-648 Y340D/Y341D): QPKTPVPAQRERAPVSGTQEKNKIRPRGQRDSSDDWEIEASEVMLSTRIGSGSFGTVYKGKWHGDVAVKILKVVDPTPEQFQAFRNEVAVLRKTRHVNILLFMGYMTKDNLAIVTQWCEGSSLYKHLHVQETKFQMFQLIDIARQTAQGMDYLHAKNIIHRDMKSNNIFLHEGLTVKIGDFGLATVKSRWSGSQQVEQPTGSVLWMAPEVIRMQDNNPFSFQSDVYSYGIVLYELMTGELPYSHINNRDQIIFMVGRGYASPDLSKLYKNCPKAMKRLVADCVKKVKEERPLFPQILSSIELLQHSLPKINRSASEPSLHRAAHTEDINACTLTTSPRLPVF
Test: Biochemical assay for C-Raf.1 (coupled pyruvate kinase/lactate dehydrogenase)
Details: read-out: CRAF.1 IC50
pIC50: −log10 of the molar value.
Test readout: pIC50

• COC(C)(C)CCNC(=O)Nc1cc(-c2ccnc(-c3ccnc(NC(=O)C4CC4)c3)c2)c(F)cc1F [Example 162] = ≥ 7.00
• COC(=O)Nc1nccc(-c2cc(OCCO)cc(-c3cc(NC(=O)NCCC4(C)CC4)c(F)cc3C)c2)n1 [Example 122] = ≥ 7.00
• COC(=O)Nc1cc(-c2cncc(-c3cc(NC(=O)N4CCCCC4)ccc3C)c2)ccn1 [Example 208] = 6.30 to 7.00
• Cc1ccc(NC(=O)N2CC[C@@H](C(F)(F)F)C2)cc1-c1cncc(-c2ccnc(NC(=O)C3CC3)c2)c1 [Example 196] = ≥ 7.00
• COC(=O)Nc1cc(-c2nccc(-c3cc(NC(=O)N4CCC(C(F)(F)F)C4)ccc3C)n2)ccn1 (stereo not drawn) [Example 193] = ≥ 7.00
• COC(C)(C)CCNC(=O)Nc1cnc(C)c(-c2cc(-c3ccnc(NC(=O)C4CC4)c3)cnn2)c1 [Example 121] = ≥ 7.00
• Cc1ccc(NC(=O)NCCC(C)(C)C)cc1-c1ccnc(N2CCOCC2)c1 [Example 18] = ≥ 7.00
• CNC(=O)c1cc(-c2cnnc(-c3cc(NC(=O)N4CC[C@H](OC)C4)ccc3C)c2)ccn1 [Example 177] = < 6.00
• COC(C)(C)CCNC(=O)Nc1cc(-c2cnnc(-c3ccnc(NC(=O)C4CC4)c3)c2)c(C)cc1F [Example 173] = ≥ 7.00
• Cc1cc(F)c(NC(=O)NCCC(C)C)cc1-c1cc(OCCO)nc(-c2ccnc(NC(=O)C3CC3)c2)c1 [Example 106] = ≥ 7.00
• Cc1ncc(NC(=O)N2CCOCC2)cc1-c1cccc(-c2cc(NC(=O)C3CC3)ncn2)c1 [Example 74] = < 6.00
• Cc1ccc(NC(=O)N2CC[C@@H](C(F)(F)F)C2)cc1-c1cccc(-c2cc(NC(=O)C3CC3)ncn2)c1 [Example 201] = ≥ 7.00
• COC[C@@H]1CCN(C(=O)Nc2cc(-c3cc(-c4ccnc(NC(=O)OC)c4)cnn3)c(C)cc2F)C1 [Example 149] = 6.00 to 6.30
• Cc1cc(F)c(NC(=O)NCCC2(C)CC2)cc1-c1cc(OCC(C)(C)O)nc(-c2ccncc2)c1 [Example 34] = ≥ 7.00
• Cc1cc(F)c(NC(=O)NCCC(C)(C)C#N)cc1-c1cccc(-c2ccnc(NC(=O)C3CC3)c2)c1 [Example 66] = ≥ 7.00

---

Biological target: B-Raf kinase (Homo sapiens)
Construct: GST (N); purchased Sigma
Sequence (P15056 416-766): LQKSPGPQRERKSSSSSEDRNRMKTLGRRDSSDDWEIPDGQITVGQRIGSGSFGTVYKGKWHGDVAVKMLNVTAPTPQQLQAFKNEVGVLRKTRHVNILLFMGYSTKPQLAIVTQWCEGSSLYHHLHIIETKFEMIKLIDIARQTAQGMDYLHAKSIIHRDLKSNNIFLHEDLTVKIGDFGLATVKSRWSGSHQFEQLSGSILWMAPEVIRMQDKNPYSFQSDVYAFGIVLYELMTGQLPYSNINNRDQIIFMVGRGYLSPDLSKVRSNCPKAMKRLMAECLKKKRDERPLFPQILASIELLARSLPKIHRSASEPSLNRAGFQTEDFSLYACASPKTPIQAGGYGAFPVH
Assay: Biochemical assay for B-Raf.1 (coupled pyruvate kinase/lactate dehydrogenase)
Details: read-out: BRAF.1 IC50
pIC50: −log10 of the molar value.
Test readout: pIC50

- COC(=O)Nc1cc(-c2cncc(-c3cc(NC(=O)N4CC[C@H](C(F)(F)F)C4)ccc3C)c2)ccn1 [Example 211]: ≥ 7.00
- Cc1cc(F)c(NC(=O)NCCC(C)(C)C)cc1-c1cc(-c2ccnc(NC(=O)C3CC3)c2)cnn1 [Example 131]: ≥ 7.00
- CNC(=O)c1cc(-c2cnnc(-c3cc(NC(=O)N4CCC5(CC5)C4)ccc3C)c2)ccn1 [Example 178]: < 6.00
- CNC(=O)c1cc(-c2cnnc(-c3cc(NC(=O)N4CC[C@@H](OC)C4)cnc3C)c2)ccn1 [Example 204]: < 6.00
- Cc1ccc(NC(=O)N2CCC3(CC3)C2)cc1-c1cncc(-c2cc(NC(=O)C3CC3)ncn2)c1 [Example 218]: ≥ 7.00
- CNC(=O)c1cc(-c2cnnc(-c3cc(NC(=O)N4CCC(C(C)(C)C)C4)ccc3C)c2)ccn1 (stereo not shown) [Example 180]: 6.00 to 6.30
- Cc1cc(F)c(NC(=O)NC2CCC(F)(F)CC2)cc1-c1cc(-c2cnn(C)c2)nc(N2CCOCC2)c1 [Example 39]: ≥ 7.00
